biological target: human FPR1 (Homo sapiens); construct: expressed in transfected cells; assay: ERK1/2 phosphorylation, CHO cells expressing FPR1; assay type: cell-based; details: 5 min, normalized to 10% FBS, mean ± SEM
Sequence (P21462 whole entry): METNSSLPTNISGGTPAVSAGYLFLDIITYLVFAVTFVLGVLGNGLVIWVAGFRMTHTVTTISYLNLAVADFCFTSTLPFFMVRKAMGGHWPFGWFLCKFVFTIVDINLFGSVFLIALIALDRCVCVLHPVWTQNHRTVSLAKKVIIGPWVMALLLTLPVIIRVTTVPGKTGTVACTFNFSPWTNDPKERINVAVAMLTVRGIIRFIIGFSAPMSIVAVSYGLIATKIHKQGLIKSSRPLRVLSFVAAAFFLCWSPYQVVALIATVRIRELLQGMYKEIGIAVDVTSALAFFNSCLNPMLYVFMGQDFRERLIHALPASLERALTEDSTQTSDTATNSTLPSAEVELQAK
Non-standard residues stand in square brackets, D forms with d. Residues, ends and D or L forms follow the SMILES beside them. *: point of attachment. Cha = N[C@@H](CC1CCCCC1)C(=O)O; For = O=C*
Measured Emax of individual entries
# output: number + unit

Use the examples below as a reference point.
{"compound": "CN[C@H](CC(C)C)C(=O)N[C@H]1C(=O)N[C@@H](CC(N)=O)C(=O)N[C@H]2C(=O)N[C@H]3C(=O)N[C@H](C(=O)N[C@H](C(=O)NCCCn4cc(C[C@H](NC(=O)CNC(=O)[C@H](Cc5ccccc5)NC(=O)[C@H](CC(C)C)NC(=O)[C@H](CCSC)NC=O)C(N)=O)nn4)c4cc(O)cc(O)c4-c4cc3ccc4O)[C@H](O)c3ccc(c(Cl)c3)Oc3cc2cc(c3O[C@@H]2O[C@H](CO)[C@@H](O)[C@H](O)[C@H]2O[C@H]2C[C@](C)(N)[C@H](O)[C@H](C)O2)Oc2ccc(cc2Cl)[C@H]1O", "assayed.system": "human FPR1 (Homo sapiens)", "Emax": "77%"}
{"compound": "CN[C@H](CC(C)C)C(=O)N[C@H]1C(=O)N[C@@H](CC(N)=O)C(=O)N[C@H]2C(=O)N[C@H]3C(=O)N[C@H](C(=O)N[C@H](C(=O)NCCCn4cc(C[C@H](NC(=O)CNC(=O)[C@H](Cc5ccccc5)NC(=O)[C@H](CC5CCCCC5)NC(=O)[C@H](CCSC)NC=O)C(N)=O)nn4)c4cc(O)cc(O)c4-c4cc3ccc4O)[C@H](O)c3ccc(c(Cl)c3)Oc3cc2cc(c3O[C@@H]2O[C@H](CO)[C@@H](O)[C@H](O)[C@H]2O[C@H]2C[C@](C)(N)[C@H](O)[C@H](C)O2)Oc2ccc(cc2Cl)[C@H]1O", "assayed.system": "human FPR1 (Homo sapiens)", "Emax": "83%"}
{"compound": "CSCC[C@H](NC=O)C(=O)N[C@@H](CC1CCCCC1)C(=O)N[C@@H](Cc1ccccc1)C(=O)NCC(N)=O [FP11, fM-Cha-FG-NH2] (For-M[Cha]FG-NH2)", "assayed.system": "human FPR1 (Homo sapiens)", "Emax": "90%"}

Consider the record given below.
Would you mind telling me what Emax value was observed for CSCC[C@H](NC=O)C(=O)N[C@@H](CC(C)C)C(=O)N[C@@H](Cc1ccccc1)C(=O)NCC(N)=O [FP1, fMLFG-NH2] (For-MLFG-NH2) ?
86%

Data origin: paper PMC8546149
